# Target: HLA-A*6802 (human)
# Measurement Description: competition with 125I probe peptide for purified HLA
Where no end group is shown, it is not given here. [ ]: non-standard residue; d: D form. Abu = CC[C@H](N)C(=O)O
Recorded Endpoint: IC50 (nM)
Kindly provide the numeric value in nM only, without the unit symbol.

Completed entries (count: 3):
AT[Abu]RWGLLV [Her2/neu.5.T2B3V9 ATBRWGLLV] yielded IC50 of 1740

YMIMVKCWM [Her2/neu.952 (9-mer) YMIMVKCWM] yielded IC50 of 1000

QLFEDNYALA [Her2/neu.106 (10-mer) QLFEDNYALA] yielded IC50 of 74

// below: IC50 requested for another binder
ALCRWGLLLA [Her2/neu.5 (10-mer) ALCRWGLLLA] yielded IC50 of 2500
